Sourced from patent US10765651B2

assay: Hygroscopicity test, condition 3 (dynamic vapor sorption, 0 to 90 to 0% RH); type: physicochemical; conditions: DVS, 25° C., RH 60%
observable: Change In Mass (%)
# output: bare number, implied unit %

compound: CNCC(=O)O.CNCC(=O)O.O=C(O)C(O)C(O)C(=O)O [N-MG/L-TA = 2/1]
Change In Mass (%): 0.13
--
compound: CNCC(=O)O.CNCC(=O)O.O=C(O)C(O)C(O)C(=O)O (racemic) [N-MG/DL-TA = 2/1]
Change In Mass (%): 2.03
--
compound: CNCC(=O)O [N-MG, N-methylglycine, reference compound]
Change In Mass (%): 0.0

// next item, Change In Mass (%) requested
Q. For the compound shown here, CNCC(=O)O.CNCC(=O)O.O=C(O)C(O)C(O)C(=O)O [N-MG/D-TA = 2/1] , give the reported Change In Mass (%).
A. 0.20
